Target: REF allele hSTING (STING AA140-379) (Homo sapiens, UniProt Q86WV6)
Construct: DNA encoding amino acids 140-379 (amino acid numbering corresponding to Swiss Prot Q86WV6); 6xHIS (N, cleaved yes); SUMO (N, cleaved yes); made in house; host or cells: E. coli Rosetta2 (DE3)
Sequence (Q86WV6 140-379): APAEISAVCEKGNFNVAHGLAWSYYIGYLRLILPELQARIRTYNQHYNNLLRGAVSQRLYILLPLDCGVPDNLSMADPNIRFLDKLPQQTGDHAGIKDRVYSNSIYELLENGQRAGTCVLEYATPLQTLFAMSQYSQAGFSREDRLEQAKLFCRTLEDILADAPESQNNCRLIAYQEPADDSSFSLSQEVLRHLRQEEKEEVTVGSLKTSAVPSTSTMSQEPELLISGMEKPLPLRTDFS
Assay: DSF Tm shift with purified hSTING REF allele protein
Format: binding
Conditions: 1 mg/mL purified STING AA140-379, ligand 1 mM
metric-name: hSTING Tm Shift REF
Your answer should be a number followed by the unit of measure.

Data request: Specify reported hSTING Tm Shift REF for the compound shown: Nc1nc2c(ncn2[C@@H]2O[C@@H]3CO[P@@](=O)(S)O[C@@H]4[C@H](O)[C@@H](CO[P@@](=O)(S)O[C@H]3[C@H]2F)O[C@H]4n2cnc3c(N)ncnc32)c(=O)[nH]1
Data returned: 14.1 °C

Data request: Report hSTING Tm Shift REF, nothing else, for this compound: Nc1ncnc2c1ncn2[C@@H]1O[C@@H]2COP(=O)(S)O[C@@H]3[C@@H](F)[C@@H](COP(=O)(S)O[C@H]2[C@H]1O)O[C@H]3n1cnc2c(N)ncnc21 (some centres unmarked) [Compound 53, dithio-cyclic-[3′βF-A(2′,5′)p-A(3′,5′)p]]
Data returned: −3.4 °C

Data request: Query hSTING Tm Shift REF for Nc1ncnc2c1ncn2[C@@H]1O[C@@H]2CO[P@@](=O)(S)O[C@@H]3[C@@H](F)[C@@H](CO[P@@](=O)(S)O[C@H]2[C@H]1F)O[C@H]3n1cnc2c(N)ncnc21
Data returned: 6.4 °C

Data request: Give a short answer stating reported hSTING Tm Shift REF for Nc1nc2c(ncn2[C@@H]2O[C@@H]3CO[P@](=O)(S)O[C@@H]4[C@H](F)[C@@H](CO[P@@](=O)(S)O[C@H]3[C@H]2F)O[C@H]4n2cnc3c(N)ncnc32)c(=O)[nH]1 [Compound 32a] .
Data returned: 9.3 °C

Data request: For the compound Nc1nc2c(ncn2[C@@H]2O[C@@H]3CO[P@@](=O)(S)O[C@@H]4[C@H](F)[C@@H](CO[P@@](=O)(S)O[C@H]3[C@H]2F)O[C@H]4n2cnc3c(N)ncnc32)c(=O)[nH]1 , give its reported hSTING Tm Shift REF.
Data returned: 10.3 °C

----------
Molecular target: wild type hSTING (STING AA140-379) (Homo sapiens, UniProt Q86WV6, H232R)
Construct: DNA encoding amino acids 140-379 (amino acid numbering corresponding to Swiss Prot Q86WV6); 6xHIS (N, cleaved yes); SUMO (N, cleaved yes); made in house; host or cells: E. coli Rosetta2 (DE3)
Sequence (Q86WV6 140-379 H232R): as the sequence (Q86WV6 140-379) above, with H93R counted along it
Test: DSF Tm shift with purified hSTING WT protein
Format: binding
Details: 1 mg/mL purified STING AA140-379, ligand 1 mM
metric-name: hSTING Tm Shift WT

Data request: Give wild type hSTING (STING AA140-379) (Homo sapiens, UniProt Q86WV6, H232R) hSTING Tm Shift WT for the following molecule: Nc1ncnc2c1ncn2[C@@H]1O[C@@H]2COP(=O)(S)O[C@@H]3[C@@H](F)[C@@H](COP(=O)(S)O[C@H]2[C@H]1O)O[C@H]3n1cnc2c(N)ncnc21 (some centres unmarked) [Compound 53, dithio-cyclic-[3′βF-A(2′,5′)p-A(3′,5′)p]]
Data returned: 1.1 °C

Data request: Find hSTING Tm Shift WT for Nc1ncnc2c1ncn2[C@@H]1O[C@@H]2CO[P@@](=O)(S)O[C@@H]3[C@@H](F)[C@@H](CO[P@@](=O)(S)O[C@H]2[C@H]1F)O[C@H]3n1cnc2c(N)ncnc21 on wild type hSTING (STING AA140-379) (Homo sapiens, UniProt Q86WV6, H232R) and write it down.
Data returned: 11.8 °C

Data request: Name the value of hSTING Tm Shift WT reported for Nc1nc2c(ncn2[C@@H]2O[C@@H]3CO[P@](=O)(S)O[C@@H]4[C@H](O)[C@@H](CO[P@@](=O)(S)O[C@H]3[C@H]2F)O[C@H]4n2cnc3c(N)ncnc32)c(=O)[nH]1 [Compound 35a] when tested on wild type hSTING (STING AA140-379) (Homo sapiens, UniProt Q86WV6, H232R).
Data returned: 10.8 °C

Data request: Report value: hSTING Tm Shift WT, system: wild type hSTING (STING AA140-379) (Homo sapiens, UniProt Q86WV6, H232R), molecule: Nc1nc2c(ncn2[C@@H]2O[C@@H]3CO[P@](=O)(S)O[C@@H]4[C@H](F)[C@@H](CO[P@](=O)(S)O[C@H]3[C@H]2F)O[C@H]4n2cnc3c(N)ncnc32)c(=O)[nH]1 [Compound 32b]
Data returned: 6.2 °C

Data request: Quote hSTING Tm Shift WT with test system wild type hSTING (STING AA140-379) (Homo sapiens, UniProt Q86WV6, H232R) for Nc1ncnc2c1ncn2[C@@H]1O[C@@H]2CO[P@@](=O)(S)O[C@@H]3[C@H](F)[C@@H](CO[P@@](=O)(S)O[C@H]2[C@H]1F)O[C@H]3n1cnc2c(N)ncnc21
Data returned: 14.5 °C
